Record: Ki reported on UniProt:P22748.
# do not omit the unit; it follows the number

Here are 10 compounds together with their reported answers.
Task: Can you look up the measured Ki of NS(=O)(=O)c1ccc(NC(=O)CN(CCN(CCN(CC(=O)O)CC(=O)O)CC(=O)O)CC(=O)O)c(F)c1 for me?
Output: 29 nM

Task: Query: Ki; subject: NS(=O)(=O)c1ccc(CNC(=O)CN(CCN(CCN(CC(=O)O)CC(=O)NCc2ccc(S(N)(=O)=O)cc2)CC(=O)O)CC(=O)O)cc1
Output: 37 nM

Task: Ki lookup needed for Nc1ccc(S(N)(=O)=O)cc1Br , thanks.
Output: 66 nM

Task: Given the entry NS(=O)(=O)c1nc2ccc(NC(=O)CN(CCN(CCN(CC(=O)O)CC(=O)O)CC(=O)O)CC(=O)O)cc2s1 , report its measured Ki.
Output: 9 nM

Task: Would you kindly share the measured Ki for NS(=O)(=O)c1ccc(CCO)cc1 ?
Output: 450 nM

Task: What value of measured Ki is listed for NS(=O)(=O)c1nnc(NC(=O)CCNC(=O)CN(CCN(CCN(CC(=O)O)CC(=O)NCCC(=O)Nc2nnc(S(N)(=O)=O)s2)CC(=O)O)CC(=O)O)s1 ?
Output: 8 nM

Task: What does the data say about its Ki? Entry: NS(=O)(=O)c1ccc(NC(=O)CN(CCN(CCN(CC(=O)O)CC(=O)Nc2ccc(S(N)(=O)=O)cc2Cl)CC(=O)O)CC(=O)O)c(Cl)c1
Output: 27 nM

Task: Looking for the measured Ki of NS(=O)(=O)c1ccc(NC(=O)CN(CCN(CCN(CC(=O)O)CC(=O)Nc2ccc(S(N)(=O)=O)cc2F)CC(=O)O)CC(=O)O)c(F)c1 , can you help?
Output: 18 nM

Task: Entry Cn1nc(S(N)(=O)=O)s/c1=N/C(=O)CN(CCN(CCN(CC(=O)O)CC(=O)O)CC(=O)O)CC(=O)O : reported Ki = ?
Output: 19 nM

Task: Which Ki is listed for NS(=O)(=O)c1ccccc1NC(=O)CN(CCN(CCN(CC(=O)O)CC(=O)O)CC(=O)O)CC(=O)O ?
Output: 550 nM

---
Task: Please give the measured Ki for this compound: NS(=O)(=O)c1ccc(NC(=O)CN(CCN(CCN(CC(=O)O)CC(=O)Nc2ccc(S(N)(=O)=O)cc2I)CC(=O)O)CC(=O)O)c(I)c1
Output: 24 nM

Task: Name the recorded Ki for Nc1ccc(S(N)(=O)=O)cc1 [SULFANILAMIDE] .
Output: 3000 nM

Task: What does the data say about its Ki? Entry: NNc1ccc(S(N)(=O)=O)cc1
Output: 3200 nM

Task: // Ki lookup, key: NS(=O)(=O)c1nnc(NC(=O)CN(CCN(CCN(CC(=O)O)CC(=O)Nc2nnc(S(N)(=O)=O)s2)CC(=O)O)CC(=O)O)s1
Output: 7 nM

====

Observed log10 of Ki for Carbonic anhydrase 1 (Homo sapiens, UniProt P00915), reported per entry below.
Units before log transform: nM; reported quantity: Ki; transform: log10.

Study these solved cases before continuing.
Task: // map NS(=O)(=O)c1ccc(CNC(=O)CN(CCN(CCN(CC(=O)O)CC(=O)O)CC(=O)O)CC(=O)O)cc1 to recorded log10 of Ki (system: Carbonic anhydrase 1 (Homo sapiens, UniProt P00915))
Sequence (P00915 whole entry): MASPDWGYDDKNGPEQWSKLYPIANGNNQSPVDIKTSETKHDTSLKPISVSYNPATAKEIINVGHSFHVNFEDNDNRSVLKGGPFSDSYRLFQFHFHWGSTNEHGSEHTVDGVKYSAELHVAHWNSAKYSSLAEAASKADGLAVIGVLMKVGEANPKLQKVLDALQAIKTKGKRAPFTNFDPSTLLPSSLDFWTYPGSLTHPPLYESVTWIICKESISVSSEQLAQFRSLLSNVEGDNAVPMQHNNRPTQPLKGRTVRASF
Output: 2.74

Task: What is its log10 of Ki for Carbonic anhydrase 1 (Homo sapiens, UniProt P00915)? Entry: NS(=O)(=O)c1nc2ccc(OC(=O)CN(CCN(CCN(CC(=O)O)CC(=O)Oc3ccc4nc(S(N)(=O)=O)sc4c3)CC(=O)O)CC(=O)O)cc2s1
Output: 1.32

Task: Which measured log10 of Ki belongs to NS(=O)(=O)c1ccc(NC(=O)CN(CCN(CCN(CC(=O)O)CC(=O)O)CC(=O)O)CC(=O)O)c(I)c1 , tested on Carbonic anhydrase 1 (Homo sapiens, UniProt P00915)?
Output: 1.90

Task: Find the measured log10 of Ki: item NS(=O)(=O)c1ccc(COC(=O)CN(CCN(CCN(CC(=O)O)CC(=O)O)CC(=O)O)CC(=O)O)cc1 , target or system Carbonic anhydrase 1 (Homo sapiens, UniProt P00915).
Output: 2.71

Task: Look up log10 of Ki with Carbonic anhydrase 1 (Homo sapiens, UniProt P00915) for this molecule: NS(=O)(=O)c1nnc(NC(=O)CN(CCN(CCN(CC(=O)O)CC(=O)O)CC(=O)O)CC(=O)O)s1
Output: 1.74

Task: Field: log10 of Ki (Carbonic anhydrase 1 (Homo sapiens, UniProt P00915)). Entry: NS(=O)(=O)c1nc2ccc(OC(=O)CN(CCN(CCN(CC(=O)O)CC(=O)O)CC(=O)O)CC(=O)O)cc2s1
Output: 1.51

New cases:
Task: Please tell me: log10 of Ki of NS(=O)(=O)c1cc(S(N)(=O)=O)c(NC(=O)CN(CCN(CCN(CC(=O)O)CC(=O)O)CC(=O)O)CC(=O)O)cc1Cl , system Carbonic anhydrase 1 (Homo sapiens, UniProt P00915)?
Output: 1.94

====

As a worked illustration, we turn to Ki data collected for Carbonic anhydrase 4 (Homo sapiens).
Numeric only. Scale: nM

Task: What value of measured Ki is listed for NS(=O)(=O)c1ccc(COC(=O)CN(CCN(CCN(CC(=O)O)CC(=O)OCc2ccc(S(N)(=O)=O)cc2)CC(=O)O)CC(=O)O)cc1 ?
Output: 170

Task: Can you look up the measured Ki of NS(=O)(=O)c1nnc(NC(=O)CN(CCN(CCN(CC(=O)O)CC(=O)O)CC(=O)O)CC(=O)O)s1 for me?
Output: 28

Others:
Task: Requested read-out: Ki. Entry: NS(=O)(=O)c1ccc(NC(=O)CN(CCN(CCN(CC(=O)O)CC(=O)Nc2ccc(S(N)(=O)=O)cc2Br)CC(=O)O)CC(=O)O)c(Br)c1
Output: 21

Task: So what does the record say about Ki for NS(=O)(=O)c1cccc(NC(=O)CN(CCN(CCN(CC(=O)O)CC(=O)Nc2cccc(S(N)(=O)=O)c2)CC(=O)O)CC(=O)O)c1 ?
Output: 425

Task: Given the molecule Nc1c(S(N)(=O)=O)cc(S(N)(=O)=O)c(Cl)c1Cl , what is its reported Ki?
Output: 175

====

Biological target: Carbonic anhydrase 1 (Homo sapiens)
pKi values for the molecules below.
The scale used: pKi is minus the common logarithm of the concentration in molar units.

# count of solved cases: 4
Task: Find the recorded pKi belonging to NS(=O)(=O)c1ccc(CCOC(=O)CN(CCN(CCN(CC(=O)O)CC(=O)OCCc2ccc(S(N)(=O)=O)cc2)CC(=O)O)CC(=O)O)cc1 and report it.
Output: 6.54

Task: // lookup pKi for NS(=O)(=O)c1cc(S(N)(=O)=O)c(NC(=O)CN(CCN(CCN(CC(=O)O)CC(=O)O)CC(=O)O)CC(=O)O)c(Cl)c1Cl
Output: 7.24

Task: Which pKi value is on record for NS(=O)(=O)c1ccc(NC(=O)CN(CCN(CCN(CC(=O)O)CC(=O)O)CC(=O)O)CC(=O)O)c(F)c1 ?
Output: 6.74

Task: For NS(=O)(=O)c1ccc(NC(=O)CN(CCN(CCN(CC(=O)O)CC(=O)O)CC(=O)O)CC(=O)O)cc1 , what is its reported pKi?
Output: 5.39

Next:
Task: Quick one: pKi for Cn1nc(S(N)(=O)=O)s/c1=N\C(=O)CN(CCN(CCN(CC(=O)O)CC(=O)/N=c1/sc(S(N)(=O)=O)nn1C)CC(=O)O)CC(=O)O ?
Output: 7.27

Task: Which pKi is listed for NS(=O)(=O)c1ccc(NC(=O)CN(CCN(CCN(CC(=O)O)CC(=O)O)CC(=O)O)CC(=O)O)c(Cl)c1 ?
Output: 6.70

Task: Report pKi for NS(=O)(=O)c1cccc(NC(=O)CN(CCN(CCN(CC(=O)O)CC(=O)O)CC(=O)O)CC(=O)O)c1 please.
Output: 5.14

Task: Give its pKi value. Item: NS(=O)(=O)c1ccc(NC(=O)CN(CCN(CCN(CC(=O)O)CC(=O)Nc2ccc(S(N)(=O)=O)cc2Br)CC(=O)O)CC(=O)O)c(Br)c1
Output: 7.10

Task: Would you mind telling me what pKi value was observed for NS(=O)(=O)c1nc2ccc(OCCOC(=O)CN(CCN(CCN(CC(=O)O)CC(=O)OCCOc3ccc4nc(S(N)(=O)=O)sc4c3)CC(=O)O)CC(=O)O)cc2s1 ?
Output: 7.80

Task: Given NS(=O)(=O)c1cc(S(N)(=O)=O)c(NC(=O)CN(CCN(CCN(CC(=O)O)CC(=O)Nc2c(S(N)(=O)=O)cc(S(N)(=O)=O)c(Cl)c2Cl)CC(=O)O)CC(=O)O)c(Cl)c1Cl , state its recorded pKi.
Output: 7.37

Task: I am curious: what pKi value has been reported for NS(=O)(=O)c1ccccc1NC(=O)CN(CCN(CCN(CC(=O)O)CC(=O)O)CC(=O)O)CC(=O)O ?
Output: 5.07

Task: State the recorded pKi for this entry: NS(=O)(=O)c1ccc(CCOC(=O)CN(CCN(CCN(CC(=O)O)CC(=O)O)CC(=O)O)CC(=O)O)cc1
Output: 6.44

Task: Return reported pKi; argument: NS(=O)(=O)c1nc2ccc(OCCOC(=O)CN(CCN(CCN(CC(=O)O)CC(=O)O)CC(=O)O)CC(=O)O)cc2s1
Output: 7.52

Task: Value lookup for pKi; key = NS(=O)(=O)c1nnc(NC(=O)CCNC(=O)CN(CCN(CCN(CC(=O)O)CC(=O)NCCC(=O)Nc2nnc(S(N)(=O)=O)s2)CC(=O)O)CC(=O)O)s1
Output: 6.99

Task: # pKi lookup, item NS(=O)(=O)c1ccc(NC(=O)CN(CCN(CCN(CC(=O)O)CC(=O)Nc2ccc(S(N)(=O)=O)cc2Cl)CC(=O)O)CC(=O)O)c(Cl)c1
Output: 6.81

meta.source: ChEMBL document CHEMBL1134204
